B1: glmS ribozyme (parent)
chain: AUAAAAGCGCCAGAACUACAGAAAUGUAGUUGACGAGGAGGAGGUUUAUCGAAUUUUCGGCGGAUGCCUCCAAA

Variants of: B1
Experiment: kcat; higher = faster cleavage; RNA array
Conditions: with glucosamine-6-phosphate
Variants at the floor of the assay were thinned out.
Attribute: kcat

Some solved cases for reference:
A15G C70G :: 0.000355 s⁻¹
G13U A14U :: 0.000743 s⁻¹

Per the records, this variant ( A64G U65G G66U C70G ) has kcat equal to 2.23e-05 s⁻¹

According to the records, this variant A15U U54G U65G displays kcat of 0.000547 s⁻¹

// recorded kcat for G13A A15U : 0.00015 s⁻¹

GET /value?item= A14U G66A &field=kcat returns 0.00402 s⁻¹
